# RUN_DESCRIPTION: APR_HepG2_CellCycleArrest_72hr: Apredica 72-hour HepG2 Assay for Cell Cycle Arrest (AID 2282914)
# ASSAY_SETUP: high-content imaging, actives raise or lower the signal
The source made the active and inactive calls. How the source made its calls: active means hit-call score of the fitted dose curve at least 0.9, where 1 is the maximum; inactive means score below 0.9.
Outcome codes: active, inactive

COMPOUND: CCNc1nc(Cl)nc(NC(C)(C)C#N)n1
ANSWER_LABEL: inactive
//
COMPOUND: CNC(=O)ON=C(SC)C(=O)N(C)C
ANSWER_LABEL: inactive
//
COMPOUND: CCOP(=S)(OCC)Oc1cc(C)nc(C(C)C)n1
ANSWER_LABEL: inactive
//
COMPOUND: COP(=O)(OC)C(O)C(Cl)(Cl)Cl (stereo not drawn)
ANSWER_LABEL: active
//
COMPOUND: CN(C)[C@@H]1C(=O)C(C(N)=O)=C(O)[C@@]2(O)C(=O)C3=C(O)c4c(O)cccc4[C@@](C)(O)[C@H]3[C@H](O)[C@@H]12
ANSWER_LABEL: inactive
//
COMPOUND: CCc1cccc(CC)c1N(COC)C(=O)CCl
ANSWER_LABEL: inactive
//
COMPOUND: CN(C)C(=O)Nc1cccc(C(F)(F)F)c1
ANSWER_LABEL: inactive
//
COMPOUND: CNC(=O)ON=C(C)SC
ANSWER_LABEL: inactive
//
COMPOUND: Nc1nc(N)nc(NC2CC2)n1
ANSWER_LABEL: inactive
//
COMPOUND: CCC(=O)Nc1ccc(Cl)c(Cl)c1
ANSWER_LABEL: inactive
//
COMPOUND: CCOP(=S)(OCC)Oc1ccc2c(C)c(Cl)c(=O)oc2c1
ANSWER_LABEL: inactive
//
COMPOUND: COc1cc(OC)nc(Sc2cccc(Cl)c2C(=O)O)n1
ANSWER_LABEL: inactive
//
COMPOUND: COP(=O)(OC)SCn1c(=O)oc2cc(Cl)cnc21
ANSWER_LABEL: active

---

# Read-out: Vascular cell adhesion molecule 1 (VCAM1), VCAM1 (gene 7412)
# RUN_DESCRIPTION: BSK_4H_VCAM1: BioMAP Diversity Plus: 4H Assay for Vascular cell adhesion molecule 1 (VCAM1) Biomarker Activity (AID 2283033)
# ASSAY_SETUP: primary human endothelial cells (HUVEC); actives raise or lower the signal
The source made the active and inactive calls. The calls were made as follows: active = hit-call score of the fitted dose curve at least 0.9, where 1 is the maximum; inactive = score below 0.9.
Classes used: yes for active, no for inactive

MOLECULE: CCCCOC(=O)[C@@H](C)Oc1ccc(Oc2ccc(C#N)cc2F)cc1
ANSWER_LABEL: no
--
MOLECULE: CCOP(=S)(OCC)Oc1cc(C)nc(C(C)C)n1
ANSWER_LABEL: no
--
MOLECULE: CCNc1nc(Cl)nc(NC(C)(C)C#N)n1
ANSWER_LABEL: no
--
MOLECULE: COc1cccc(C(=O)NN(C(=O)c2cc(C)cc(C)c2)C(C)(C)C)c1C
ANSWER_LABEL: no
--
MOLECULE: CNC(=O)ON=C(SC)C(=O)N(C)C
ANSWER_LABEL: no
--
MOLECULE: CC1=NNC(=O)N(/N=C/c2cccnc2)C1
ANSWER_LABEL: no
--
MOLECULE: CON=C(C(=O)OC)c1ccccc1CON=C(C)c1cccc(C(F)(F)F)c1
ANSWER_LABEL: no
--
MOLECULE: CN(C)[C@@H]1C(=O)C(C(N)=O)=C(O)[C@@]2(O)C(=O)C3=C(O)c4c(O)cccc4[C@@](C)(O)[C@H]3[C@H](O)[C@@H]12
ANSWER_LABEL: no
--
MOLECULE: FC(F)C(F)(F)OCC(Cn1cncn1)c1ccc(Cl)cc1Cl (stereo not given)
ANSWER_LABEL: yes
--
MOLECULE: COP(=O)(OC)SCn1c(=O)oc2cc(Cl)cnc21
ANSWER_LABEL: no
--
MOLECULE: CNC(=O)Oc1cccc2c1OC(C)(C)O2
ANSWER_LABEL: yes
--
MOLECULE: CC(COc1ccc(Oc2ccccc2)cc1)Oc1ccccn1 (stereo not given)
ANSWER_LABEL: no
--
MOLECULE: CCc1cnc(C2=NC(C)(C(C)C)C(=O)N2)c(C(=O)O)c1 (stereo not given)
ANSWER_LABEL: no
--
MOLECULE: CC(=NC#N)N(C)Cc1ccc(Cl)nc1
ANSWER_LABEL: no
--
MOLECULE: O=c1ccc(=O)[nH][nH]1
ANSWER_LABEL: no
--
MOLECULE: CSc1nnc(C(C)(C)C)c(=O)n1N
ANSWER_LABEL: no
--
MOLECULE: Nc1c(Cl)cc([N+](=O)[O-])cc1Cl
ANSWER_LABEL: no
--
MOLECULE: CN(C)C(=O)Nc1cccc(C(F)(F)F)c1
ANSWER_LABEL: no
--
MOLECULE: CC1(C(=O)Nc2ccc(O)c(Cl)c2Cl)CCCCC1
ANSWER_LABEL: no
--
MOLECULE: C[Si](Cn1cncn1)(c1ccc(F)cc1)c1ccc(F)cc1
ANSWER_LABEL: no
--
MOLECULE: COc1ccc(C(=CC(=O)N2CCOCC2)c2ccc(Cl)cc2)cc1OC
ANSWER_LABEL: no
--
MOLECULE: C[N+]1(C)CCCCC1
ANSWER_LABEL: no
--
MOLECULE: S=C1NCCN1
ANSWER_LABEL: no
--
MOLECULE: Cc1ccn2nc(S(=O)(=O)Nc3c(F)cccc3F)nc2n1
ANSWER_LABEL: no
--
MOLECULE: C#CCC1=C(C)C(OC(=O)C2C(C=C(C)C)C2(C)C)CC1=O (stereo not given)
ANSWER_LABEL: no

---

# Read-out: Monokine induced gamma interferon (MIG), CXCL9 (gene 4283)
# RUN_DESCRIPTION: BSK_3C_MIG: BioMAP Diversity Plus: 3C Assay for Monokine induced gamma interferon (MIG) Biomarker Activity (AID 2283021)
# ASSAY_SETUP: primary human endothelial cells (HUVEC); actives raise or lower the signal
Calls of active or inactive are those of the source. Rule for the calls: active = hit-call score of the fitted dose curve at least 0.9, where 1 is the maximum; inactive = score below 0.9.
Labels: Y for active, N for inactive

COMPOUND: CCc1cnc(C2=NC(C)(C(C)C)C(=O)N2)c(C(=O)O)c1 (stereo unspecified)
ANSWER_LABEL: N
//
COMPOUND: COP(=O)(OC)OC(Br)C(Cl)(Cl)Br (stereo unspecified)
ANSWER_LABEL: Y
//
COMPOUND: FC(F)C(F)(F)OCC(Cn1cncn1)c1ccc(Cl)cc1Cl (stereo unspecified)
ANSWER_LABEL: N
//
COMPOUND: CCCOc1nn(C(=O)NS(=O)(=O)c2ccccc2C(=O)OC)c(=O)n1C
ANSWER_LABEL: N
//
COMPOUND: Cc1ccn2nc(S(=O)(=O)Nc3c(F)cccc3F)nc2n1
ANSWER_LABEL: N
//
COMPOUND: CC(=NC#N)N(C)Cc1ccc(Cl)nc1
ANSWER_LABEL: N

---

# Read-out: ABC Transporter (ABCB1), ABCB1 (gene 5243)
# RUN_DESCRIPTION: CLD_ABCB1_48hr: CellzDirect (CLD) Gene Expression Assay for ABC Transporter (ABCB1) at 48 hours (AID 2283695)
Inconclusive results are not listed. Calls of active or inactive are those of the source. Rule for the calls: active = hit-call score of the fitted dose curve at least 0.9, where 1 is the maximum; inconclusive = response in the unintended direction; inactive = score below 0.9.
OBSERVED_PROPERTY: outcome

MOLECULE: CCCOCC(=Nc1ccc(Cl)cc1C(F)(F)F)n1ccnc1
OBSERVED_PROPERTY: outcome
MEASURED_VALUE: inactive
--
MOLECULE: COP(=O)(OC)SCn1c(=O)oc2cc(Cl)cnc21
OBSERVED_PROPERTY: outcome
MEASURED_VALUE: inactive
--
MOLECULE: CC(COc1ccc(Oc2ccccc2)cc1)Oc1ccccn1 (stereo not drawn)
OBSERVED_PROPERTY: outcome
MEASURED_VALUE: inactive

---

# RUN_DESCRIPTION: ACEA_AR_agonist_AUC_viability: ACEA Biosciences xCELLigence Real-Time Cell Analysis on Androgen Receptor Agonism for Viability (AID 2283775)
# Protocol: ACEA_AR_agonist is a cell-based, single-readout assay that uses 22Rv1, a human prostate cancer cell line, with measurements taken at 80 hours after chemical dosing in a 384-well plate, although TO5 and TO6 (mc0.srcf) used a 96-well plate. Differences in plate size can be ignored given data normalization.ACEA_AR_80hr is one of two assay component(s) measured or calculated from the ACEA_AR assay. […]
Results filed as inconclusive are left out. The source made the active and inactive calls. Rule for the calls: active = hit-call score of the fitted dose curve at least 0.9, where 1 is the maximum; inconclusive = response in the unintended direction; inactive = score below 0.9.
Possible outcomes: class 1 (active), class 0 (inactive)

MOLECULE: CCc1cnc(C2=NC(C)(C(C)C)C(=O)N2)c(C(=O)O)c1 (stereo unspecified)
ANSWER_LABEL: class 0

MOLECULE: CCCOCC(=Nc1ccc(Cl)cc1C(F)(F)F)n1ccnc1
ANSWER_LABEL: class 1

MOLECULE: Cc1ccn2nc(S(=O)(=O)Nc3c(F)cccc3F)nc2n1
ANSWER_LABEL: class 0

MOLECULE: CCOC(=O)CC(SP(=O)(OC)OC)C(=O)OCC (stereo unspecified)
ANSWER_LABEL: class 0

MOLECULE: C#CCC1=C(C)C(OC(=O)C2C(C=C(C)C)C2(C)C)CC1=O (stereo unspecified)
ANSWER_LABEL: class 1

MOLECULE: COP(=O)(OC)SCn1c(=O)oc2cc(Cl)cnc21
ANSWER_LABEL: class 1

MOLECULE: COP(=O)(OC)OC(Br)C(Cl)(Cl)Br (stereo unspecified)
ANSWER_LABEL: class 1

MOLECULE: CNc1cnn(-c2cccc(C(F)(F)F)c2)c(=O)c1Cl
ANSWER_LABEL: class 0

MOLECULE: CNC(=O)ON=C(SC)C(=O)N(C)C
ANSWER_LABEL: class 0

MOLECULE: CC(C)N(C(=O)SCC(Cl)=C(Cl)Cl)C(C)C
ANSWER_LABEL: class 1

MOLECULE: CCOP(=S)(OCC)SCCSCC
ANSWER_LABEL: class 1

MOLECULE: CCCCOC(=O)c1ccccc1C(=O)O
ANSWER_LABEL: class 0

MOLECULE: C[N+]1(C)CCCCC1
ANSWER_LABEL: class 0

MOLECULE: CC(C)=CC1C(C(=O)OCN2C(=O)C3=C(CCCC3)C2=O)C1(C)C (stereo unspecified)
ANSWER_LABEL: class 1

MOLECULE: COP(=O)(OC)C(O)C(Cl)(Cl)Cl (stereo unspecified)
ANSWER_LABEL: class 0

MOLECULE: CNC(=O)ON=C(C)SC
ANSWER_LABEL: class 0

MOLECULE: CCCCN(CC)c1c([N+](=O)[O-])cc(C(F)(F)F)cc1[N+](=O)[O-]
ANSWER_LABEL: class 1

MOLECULE: C=C(C)[C@H]1Cc2c(ccc3c2O[C@@H]2COc4cc(OC)c(OC)cc4[C@@H]2C3=O)O1
ANSWER_LABEL: class 1

MOLECULE: CC[C@H](C)[C@H]1O[C@]2(C=C[C@@H]1C)C[C@@H]1C[C@@H](C/C=C(\C)[C@@H](O[C@H]3C[C@H](OC)[C@@H](O[C@H]4C[C@H](OC)[C@@H](NC)[C@H](C)O4)[C@H](C)O3)[C@@H](C)/C=C/C=C3\CO[C@@H]4[C@H](O)C(C)=C[C@@H](C(=O)O1)[C@]34O)O2
ANSWER_LABEL: class 1

MOLECULE: CCOP(=O)(NC(C)C)Oc1ccc(SC)c(C)c1 (stereo unspecified)
ANSWER_LABEL: class 1

MOLECULE: C#CC(C)(C)NC(=O)c1cc(Cl)cc(Cl)c1
ANSWER_LABEL: class 0

MOLECULE: CN(C)[C@@H]1C(=O)C(C(N)=O)=C(O)[C@@]2(O)C(=O)C3=C(O)c4c(O)cccc4[C@@](C)(O)[C@H]3[C@H](O)[C@@H]12
ANSWER_LABEL: class 1

MOLECULE: CCCSP(=O)(OCC)SCCC
ANSWER_LABEL: class 0

MOLECULE: CCCOc1nn(C(=O)NS(=O)(=O)c2ccccc2C(=O)OC)c(=O)n1C
ANSWER_LABEL: class 0

MOLECULE: CC(COc1ccc(Oc2ccccc2)cc1)Oc1ccccn1 (stereo unspecified)
ANSWER_LABEL: class 1

MOLECULE: CCOP(=S)(Oc1cnc(C(C)(C)C)nc1)OC(C)C (stereo unspecified)
ANSWER_LABEL: class 1

MOLECULE: Cc1cc(C2CC2)nc(Nc2ccccc2)n1
ANSWER_LABEL: class 1

MOLECULE: COP(=O)(NC(C)=O)SC (stereo unspecified)
ANSWER_LABEL: class 0

MOLECULE: O=C(O)c1cc(Oc2ccc(C(F)(F)F)cc2Cl)ccc1[N+](=O)[O-]
ANSWER_LABEL: class 1

MOLECULE: CCc1cccc(CC)c1N(COC)C(=O)CCl
ANSWER_LABEL: class 1

MOLECULE: CCc1cccc(C)c1N(C(=O)CCl)C(C)COC (stereo unspecified)
ANSWER_LABEL: class 0

MOLECULE: CC1=NNC(=O)N(/N=C/c2cccnc2)C1
ANSWER_LABEL: class 0

MOLECULE: CNC(=O)Oc1cccc2c1OC(C)(C)O2
ANSWER_LABEL: class 0

MOLECULE: CN(C)NC(=O)CCC(=O)O
ANSWER_LABEL: class 0

MOLECULE: CC(C1CC1)C(O)(Cn1cncn1)c1ccc(Cl)cc1 (stereo unspecified)
ANSWER_LABEL: class 1

MOLECULE: CCC(=O)Nc1ccc(Cl)c(Cl)c1
ANSWER_LABEL: class 0
